This collection of values is drawn from patent US20250320312A1.

Each entry below carries its recorded OD450.
Molecular target: T1, Peptide 4: Biotin-AGGGGSGGGGSGGGGSAAA-Tyr-acid (N-terminal biotin; C-terminal acid)
T1 construct: Control peptide without PC
T1 peptide: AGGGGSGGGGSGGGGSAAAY
Test: scFv ELISA
Enter your answer as a number in OD450; do not include the unit.

Query: OD450 lookup needed for PcOxP_DB04_G09 (scFv, V domains shown, scFv in periplasmic extract) VH: EVQLLESGGGLVQPGGSLRLSCAASGNTFSDFYMEWVRQAPGKGLEWVAASRNKWNDYTTEYADSVKGRFTISRDNSKNTLYLQMNSLRAEDTAVYYCARDYYGSSYWYFDVWGQGTLVTVSS VL: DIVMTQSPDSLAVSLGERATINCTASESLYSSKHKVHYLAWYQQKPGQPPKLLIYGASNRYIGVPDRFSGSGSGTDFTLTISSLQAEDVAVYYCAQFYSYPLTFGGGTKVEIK , thanks.
Reply: 0.05

Query: Bench note: what OD450 did PcOxP_DB03_B06 (scFv, V domains shown, scFv in periplasmic extract) VH: EVQLLESGGGLVQPGGSLRLSCAASGITFSDFYMEWVRQAPGKGLEWVAASRNKYNDYTTEYADSVKGRFTISRDNSKNTLYLQMNSLRAEDTAVYYCARDYYGSSYWYFDVWGQGTLVTVSS VL: DIVMTQSPDSLAVSLGERATINCTASESLYSSKHKVHYLAWYQQKPGQPPKLLIYGASNRYTGVPDRFSGSGSGTDFTLTISSLQAEDVAVYYCAQFYSYPLTFGGGTKVEIK show?
Reply: 0.04

Query: # OD450 lookup, item PcOxP_DB03_B11 (scFv, V domains shown, scFv in periplasmic extract) VH: EVQLLESGGGLVQPGGSLRLSCAASGFTFSDFYVEWVRQAPGKGLEWVAASRNKANTYTTEYADSVKGRFTISRDNSKNTLYLQMNSLRAEDTAVYYCARDYYGSSYWYFDVWGQGTLVTVSS VL: DIVMTQSPDSLAVSLGERATINCTASESLYSSKHKVHYLAWYQQKPGQPPKLLIYGAQNRYIGVPDRFSGSGSGTDFTLTISSLQAEDVAVYYCGQFYSYPLTFGGGTKVEIK
Reply: 0.05

Query: For PcOxP_DB03_E12 (scFv, V domains shown, scFv in periplasmic extract) VH: EVQLLESGGGLVQPGGSLRLSCAASGETFSDFYMEWVRQAPGKGLEWVAASRNKWNDYTTEYADSVKGRFTISRDNSKNTLYLQMNSLRAEDTAVYYCARDYYGSSYWYFDVWGQGTLVTVSS VL: DIVMTQSPDSLAVSLGERATINCTASESLYSSKHKVNYLAWYQQKPGQPPKLLIYGASNRYIGVPDRFSGSGSGTDFTLTISSLQAEDVAVYYCAQFYSYPLTFGGGTKVEIK , what is its reported OD450?
Reply: 0.06

Query: Reported OD450, binder PcOxP_DB04_G03 (scFv, V domains shown, scFv in periplasmic extract) VH: EVQLLESGGGLVQPGGSLRLSCAASGFTTSDFYMEWVRQAPGKGLEWVAASRNKANDYTTEYADSVKGRFTISRDNSKNTLYLQMNSLRAEDTAVYYCARDYYGSSYWYFDYWGQGTLVTVSS VL: DIVMTQSPDSLAVSLGERATINCTASESLYSSKHKVHYLAWYQQKPGQPPKLLIYGASNRNIGVPDRFSGSGSGTDFTLTISSLQAEDVAVYYCAHFYSYPLTFGGGTKVEIK : ____
Reply: 0.04
